Below is a list of entries, each paired with its recorded inhibition value.
Test: protection from phage-mediated lysis, alamar blue read-out – E. coli UTI89, K1F phage, bacterial capsule biogenesis inhibitors (AID 488966);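 note: capsule biogenesis inhibitors block K1F phage lysis so surviving cells raise fluorescence; higher fluorescence means more inhibition of phage lysis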
Details: 2 h; at 100 µM, active compounds read high unless noted
About 55 (0.02%) of roughly 340,000 compounds were called active. The list is a sample of the results. Results with a measured potency or affinity are listed apart.
measured-endpoint: inhibition (%)

INSERT INTO measurements (compound, measured_endpoint, val) VALUES
  ('COc1cc(CCC(=O)NCC2CCCO2)cc(OC)c1OC (stereo unspecified)', 'inhibition', 0.13),
  ('CSc1ccc(CN(C)CC(=O)Nc2ccc(NC(C)=O)cc2)cc1', 'inhibition', -0.1),
  ('COc1cccc(-c2c(C(=O)N/N=C(\C)c3cccs3)nnn2-c2nonc2N)c1', 'inhibition', 0.38),
  ('Cc1ccc(NC(=O)CN(C)C(=O)Cn2nnc(-c3ccccc3C)n2)cc1', 'inhibition', -2.28),
  ('Cc1nc(N2CCN(C(=O)c3ccco3)CC2)c2oc3ccccc3c2n1', 'inhibition', 1.22),
  ('CC1=C(C(=O)OCC(C)C)C23C(=O)c4ccccc4C2(O1)OC(N)=C3C#N (stereo unspecified)', 'inhibition', 0.06);
